subject of test: T1, KDM5B-PHD1-S333A (Homo sapiens)
T1 chain: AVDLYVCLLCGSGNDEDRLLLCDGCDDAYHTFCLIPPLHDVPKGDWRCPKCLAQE
assay: ITC
measure name: pKd
On this scale, pKd is minus log10 of a concentration expressed in M (mol/L).

(Q) Given the binder ARTKQTARKS (histone H3 N-terminal tail, residues 1-10; also called H3K4me0; H3K4me0 peptide; source: synthetic peptide, bought: GL Biochem Ltd. (Shanghai, China)) [unmodified H3K4 peptide (residues 1-10)] , write its reported pKd.
(A) 4.89

The reported measurements were obtained from paper PMC4225485.
